Measured values drawn from paper PMC4819940 for this set.

Assay: Plasma pharmacokinetics of AZD5363 after a single dose and multiple doses
Assay type: in vivo, human
Details: human, plasma, oral, 80 mg, single dose; 80 mg bid continuous cohort, n=3; geometric mean (CV%); read-out: AUC
reported property: AUC (ng·h/mL)
Answers are plain numbers, in ng·h/mL.

Task: For the molecule "NC1(C(=O)N[C@@H](CCO)c2ccc(Cl)cc2)CCN(c2ncnc3[nH]ccc23)CC1" , what AUC is on record?
Output: 1260

----------
Assay: Plasma pharmacokinetics of AZD5363 after a single dose and multiple doses
Assay type: in vivo, human
Conditions: human, plasma, oral, multiple doses; Total, n=37; geometric mean (CV%); read-out: AUCss
reported property: AUC (ng·h/mL)
One number for each entry, in ng·h/mL.

Task: For the molecule "NC1(C(=O)N[C@@H](CCO)c2ccc(Cl)cc2)CCN(c2ncnc3[nH]ccc23)CC1" , what AUC is on record?
Output: 6820

----------
Test: Plasma pharmacokinetics of AZD5363 after a single dose and multiple doses
Type: in vivo, human
Conditions: human, plasma, oral, 480 mg, multiple doses; 480 mg bid intermittent 4/3, n=6; geometric mean (CV%); read-out: AUCss
reported property: AUC (ng·h/mL)
Give bare numbers, in ng·h/mL.

Task: For the compound "NC1(C(=O)N[C@@H](CCO)c2ccc(Cl)cc2)CCN(c2ncnc3[nH]ccc23)CC1" , what AUC is on record?
Output: 10900

----------
Experiment: Plasma pharmacokinetics of AZD5363 after a single dose and multiple doses
Format: in vivo, human
Conditions: human, plasma, oral; single dose; 480 mg bid intermittent 4/3 cohort, n=6; geometric mean (CV%)
reported property: Cmax (ng/mL)
Numbers only, in ng/mL.

Task: For the compound "NC1(C(=O)N[C@@H](CCO)c2ccc(Cl)cc2)CCN(c2ncnc3[nH]ccc23)CC1" , what Cmax is on record?
Output: 1910

----------
Assay: Plasma pharmacokinetics of AZD5363 after a single dose and multiple doses
Type: in vivo, human
Conditions: human, plasma, oral; single dose; 80 mg bid continuous cohort, n=3; geometric mean (CV%); read-out: V ss/F
reported property: Vd/F (L)
Numbers only, in L.

Task: For the compound "NC1(C(=O)N[C@@H](CCO)c2ccc(Cl)cc2)CCN(c2ncnc3[nH]ccc23)CC1" , what Vd/F is on record?
Output: 715

----------
Experiment: Plasma pharmacokinetics of AZD5363 after a single dose and multiple doses
Assay type: in vivo, human
Conditions: human, plasma, oral; single dose; 400 mg bid continuous cohort, n=5; geometric mean (CV%); read-out: V ss/F
reported property: Vd/F (L)
Give bare numbers, in L.

Task: For the molecule "NC1(C(=O)N[C@@H](CCO)c2ccc(Cl)cc2)CCN(c2ncnc3[nH]ccc23)CC1" , what Vd/F is on record?
Output: 777

----------
Assay: Plasma pharmacokinetics of AZD5363 after a single dose and multiple doses
Type: in vivo, human
Settings: human, plasma, oral; single dose; 640 mg bid intermittent 2/5 cohort, n=6; geometric mean (CV%)
reported property: Cmax (ng/mL)
Numbers only, in ng/mL.

Task: For the compound "NC1(C(=O)N[C@@H](CCO)c2ccc(Cl)cc2)CCN(c2ncnc3[nH]ccc23)CC1" , what Cmax is on record?
Output: 2100

----------
Experiment: Plasma pharmacokinetics of AZD5363 after a single dose and multiple doses
Format: in vivo, human
Settings: human, plasma, oral; single dose; 400 mg bid continuous cohort, n=5; geometric mean (CV%)
reported property: Cmax (ng/mL)
Answers are plain numbers, in ng/mL.

Task: For the compound "NC1(C(=O)N[C@@H](CCO)c2ccc(Cl)cc2)CCN(c2ncnc3[nH]ccc23)CC1" , what Cmax is on record?
Output: 1060

----------
Experiment: Plasma pharmacokinetics of AZD5363 after a single dose and multiple doses
Assay type: in vivo, human
Conditions: human, plasma, oral; single dose; 480 mg bid intermittent 4/3 cohort, n=6; median (range); read-out: t max
reported property: Tmax (h)
Numbers only, in h.

Task: For the compound NC1(C(=O)N[C@@H](CCO)c2ccc(Cl)cc2)CCN(c2ncnc3[nH]ccc23)CC1 [AZD5363] , what Tmax is on record?
Output: 1.02

----------
Assay: Plasma pharmacokinetics of AZD5363 after a single dose and multiple doses
Format: in vivo, human
Conditions: human, plasma, oral, 400 mg, multiple doses; 400 mg bid continuous, n=4; geometric mean (CV%); read-out: AUCss
reported property: AUC (ng·h/mL)
Give bare numbers, in ng·h/mL.

Task: For the compound NC1(C(=O)N[C@@H](CCO)c2ccc(Cl)cc2)CCN(c2ncnc3[nH]ccc23)CC1 [AZD5363] , what AUC is on record?
Output: 9670

----------
Experiment: Plasma pharmacokinetics of AZD5363 after a single dose and multiple doses
Type: in vivo, human
Conditions: human, plasma, oral, 360 mg, single dose; 360 mg bid intermittent 4/3 cohort, n=8; geometric mean (CV%); read-out: AUC
reported property: AUC (ng·h/mL)
Numbers only, in ng·h/mL.

Task: For the compound NC1(C(=O)N[C@@H](CCO)c2ccc(Cl)cc2)CCN(c2ncnc3[nH]ccc23)CC1 [AZD5363] , what AUC is on record?
Output: 4770

----------
Assay: Plasma pharmacokinetics of AZD5363 after a single dose and multiple doses
Type: in vivo, human
Conditions: human, plasma, oral; single dose; 400 mg bid continuous cohort, n=5; median (range); read-out: t max
reported property: Tmax (h)
One number for each entry, in h.

Task: For the compound NC1(C(=O)N[C@@H](CCO)c2ccc(Cl)cc2)CCN(c2ncnc3[nH]ccc23)CC1 [AZD5363] , what Tmax is on record?
Output: 1.97

----------
Test: Plasma pharmacokinetics of AZD5363 after a single dose and multiple doses
Assay type: in vivo, human
Settings: human, plasma, oral, 400 mg, single dose; 400 mg bid continuous cohort, n=5; geometric mean (CV%); read-out: AUC
Source text: […] area under the plasma concentration–time curve (AUC), maximum plasma (peak) drug concentration (Cmax), time to reach Cmax (tmax), apparent plasma clearance (CL/F), and oral volume of distribution at steady state (Vss/F).
reported property: AUC (ng·h/mL)
Numbers only, in ng·h/mL.

Task: For the compound NC1(C(=O)N[C@@H](CCO)c2ccc(Cl)cc2)CCN(c2ncnc3[nH]ccc23)CC1 [AZD5363] , what AUC is on record?
Output: 4670

----------
Experiment: Plasma pharmacokinetics of AZD5363 after a single dose and multiple doses
Assay type: in vivo, human
Conditions: human; plasma, single oral doses
reported property: half-life

Task: For the compound "NC1(C(=O)N[C@@H](CCO)c2ccc(Cl)cc2)CCN(c2ncnc3[nH]ccc23)CC1" , what half-life is on record?
Output: ~600 min

----------
Test: Plasma pharmacokinetics of AZD5363 after a single dose and multiple doses
Format: in vivo, human
Settings: human, plasma, oral; single dose; 360 mg bid intermittent 4/3 cohort, n=8; median (range); read-out: t max
Text: […] area under the plasma concentration–time curve (AUC), maximum plasma (peak) drug concentration (Cmax), time to reach Cmax (tmax), apparent plasma clearance (CL/F), and oral volume of distribution at steady state (Vss/F).
reported property: Tmax (h)
Answers are plain numbers, in h.

Task: For the compound "NC1(C(=O)N[C@@H](CCO)c2ccc(Cl)cc2)CCN(c2ncnc3[nH]ccc23)CC1" , what Tmax is on record?
Output: 1.99

----------
Test: Plasma pharmacokinetics of AZD5363 after a single dose and multiple doses
Format: in vivo, human
Conditions: human, plasma, oral; single dose, all cohorts; median (range); read-out: tmax
reported property: Tmax (h)
Numbers only, in h.

Task: For the compound "NC1(C(=O)N[C@@H](CCO)c2ccc(Cl)cc2)CCN(c2ncnc3[nH]ccc23)CC1" , what Tmax is on record?
Output: 1.98

----------
Assay: Plasma pharmacokinetics of AZD5363 after a single dose and multiple doses
Type: in vivo, human
Settings: human, plasma, oral, 640 mg, single dose; 640 mg bid intermittent 2/5 cohort, n=6; geometric mean (CV%); read-out: AUC
reported property: AUC (ng·h/mL)
One number for each entry, in ng·h/mL.

Task: For the compound "NC1(C(=O)N[C@@H](CCO)c2ccc(Cl)cc2)CCN(c2ncnc3[nH]ccc23)CC1" , what AUC is on record?
Output: 11400

----------
Test: Plasma pharmacokinetics of AZD5363 after a single dose and multiple doses
Format: in vivo, human
Settings: human, plasma, oral, 480 mg, single dose; 480 mg bid intermittent 4/3 cohort, n=6; geometric mean (CV%); read-out: AUC
reported property: AUC

Task: For the molecule "NC1(C(=O)N[C@@H](CCO)c2ccc(Cl)cc2)CCN(c2ncnc3[nH]ccc23)CC1" , what AUC is on record?
Output: 7210 ng·h/mL

----------
Test: Plasma pharmacokinetics of AZD5363 after a single dose and multiple doses
Format: in vivo, human
Conditions: human, plasma, oral, 640 mg, multiple doses; 640 mg bid intermittent 2/5, n=6; geometric mean (CV%); read-out: AUCss
reported property: AUC (ng·h/mL)
Numbers only, in ng·h/mL.

Task: For the molecule "NC1(C(=O)N[C@@H](CCO)c2ccc(Cl)cc2)CCN(c2ncnc3[nH]ccc23)CC1" , what AUC is on record?
Output: 14200
